Biological target: recombinant human WRN (Homo sapiens, UniProt Q14191)
Construct: purchased BPS 101264
Sequence (Q14191 whole entry): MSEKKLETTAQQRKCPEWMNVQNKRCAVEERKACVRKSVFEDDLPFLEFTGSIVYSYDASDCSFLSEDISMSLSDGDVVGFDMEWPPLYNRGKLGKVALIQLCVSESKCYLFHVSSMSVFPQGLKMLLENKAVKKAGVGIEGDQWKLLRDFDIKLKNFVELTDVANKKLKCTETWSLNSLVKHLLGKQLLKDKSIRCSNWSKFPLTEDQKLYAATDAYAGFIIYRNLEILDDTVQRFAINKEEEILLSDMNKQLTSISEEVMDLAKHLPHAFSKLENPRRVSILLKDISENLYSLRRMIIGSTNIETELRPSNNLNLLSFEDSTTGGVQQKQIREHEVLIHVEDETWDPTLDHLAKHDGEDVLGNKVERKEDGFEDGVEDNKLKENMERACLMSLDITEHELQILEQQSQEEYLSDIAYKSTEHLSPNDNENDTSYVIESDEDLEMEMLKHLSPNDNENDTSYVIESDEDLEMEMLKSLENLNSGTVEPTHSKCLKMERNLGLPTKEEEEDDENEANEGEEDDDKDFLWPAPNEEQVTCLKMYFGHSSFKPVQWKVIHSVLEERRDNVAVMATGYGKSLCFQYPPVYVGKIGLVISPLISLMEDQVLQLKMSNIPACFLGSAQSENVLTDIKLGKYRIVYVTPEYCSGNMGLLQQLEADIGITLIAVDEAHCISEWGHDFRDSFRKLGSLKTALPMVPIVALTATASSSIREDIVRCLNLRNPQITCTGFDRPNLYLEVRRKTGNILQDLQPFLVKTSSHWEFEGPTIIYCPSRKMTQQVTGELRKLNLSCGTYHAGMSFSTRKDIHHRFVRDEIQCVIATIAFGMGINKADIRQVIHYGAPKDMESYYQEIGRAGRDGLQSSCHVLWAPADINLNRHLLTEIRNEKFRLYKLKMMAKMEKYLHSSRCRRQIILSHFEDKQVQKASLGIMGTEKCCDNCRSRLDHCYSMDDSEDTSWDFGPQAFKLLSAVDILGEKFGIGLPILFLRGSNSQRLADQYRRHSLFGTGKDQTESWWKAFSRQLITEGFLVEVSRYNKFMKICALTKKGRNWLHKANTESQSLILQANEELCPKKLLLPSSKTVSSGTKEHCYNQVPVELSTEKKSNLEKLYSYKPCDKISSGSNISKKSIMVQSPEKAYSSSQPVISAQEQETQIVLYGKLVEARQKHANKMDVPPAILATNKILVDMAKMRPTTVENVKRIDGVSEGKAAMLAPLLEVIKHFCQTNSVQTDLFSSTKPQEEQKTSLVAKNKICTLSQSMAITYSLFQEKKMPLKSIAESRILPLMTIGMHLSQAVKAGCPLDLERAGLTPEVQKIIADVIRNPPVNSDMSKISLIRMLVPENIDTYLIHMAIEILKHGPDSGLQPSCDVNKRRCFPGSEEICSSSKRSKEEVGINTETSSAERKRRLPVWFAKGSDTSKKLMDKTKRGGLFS
Assay: Inhibition of WRN enzyme activity (ATPase), ADP-Glo Kinase Assay
Type: biochemical
Conditions: WRN protein 5 nM, Flap 0.1 nM, ATP 30 µM; read-out: IC50
measurement.name: IC50

{"molecule": "CCc1c(N2CCN(C(=O)c3cccc(C)c3O)CC2)c(=O)n2nc(C3=CCCCCC3)nc2n1CC(=O)Nc1ccc(C(F)(F)F)cc1Cl [Example 11]", "measurement.name": "IC50", "result": "1 to 100 nM"}
{"molecule": "CCc1c(N2CCN(C(=O)c3ncccc3O)CC2)c(=O)n2nc(C3=CCCCCC3)nc2n1CC(=O)Nc1ccc(S(F)(F)(F)(F)F)cc1 [Example 46]", "measurement.name": "IC50", "result": "1 to 100 nM"}
{"molecule": "Cc1ncnc(C(=O)N2CCN(c3c(C)n(CC(=O)Nc4ccc(C(F)(F)F)cc4Cl)c4nc(C5=CC6CC(=O)CC6C5)nn4c3=O)CC2)c1O (stereo not drawn) [Example 32]", "measurement.name": "IC50", "result": "1 to 100 nM"}

Source listed as patent EP4800015A1.
